Every entry's value here was drawn from patent US7981903B2.

# experimental target: NIH-3T3 cells overexpressing human IGF-1R (Homo sapiens)
# Construct: expressed in transfected cells; host or cells: NIH-3T3 (mouse fibroblasts)
# measurement protocol: IGF-1R cellular autophosphorylation (DELFIA)
# Assay type: cell-based
experimental endpoint: IC50

>>> result("CNC(=O)c1c(F)cccc1Nc1nc(Nc2cc(N(C)C(=O)CN(C)C)ccc2OC)nc2[nH]ccc12")
"100 to 500 nM"

Exam item: Reported IC50 for NIH-3T3 cells overexpressing human IGF-1R (Homo sapiens), given `COc1ccc(NC(=O)CN(C)C)cc1Nc1nc(Nc2cccc(F)c2C(N)=O)c2cc[nH]c2n1` ?
Marked response: < 100 nM

Exam item: Reported IC50 for NIH-3T3 cells overexpressing human IGF-1R (Homo sapiens), given `CNC(=O)c1cc(F)ccc1Nc1nc(Nc2ccc(N3CCN(C(C)C)CC3)cc2OC)nc2[nH]ccc12` ?
Marked response: 100 to 500 nM

Exam item: Reported IC50 for NIH-3T3 cells overexpressing human IGF-1R (Homo sapiens), given `COc1cc2c(cc1Nc1nc(Nc3cccc(F)c3C(N)=O)c3cc[nH]c3n1)CN(C(=O)CCN1CCN(C(C)C)CC1)CC2` ?
Marked response: > 500 nM

Exam item: Reported IC50 for NIH-3T3 cells overexpressing human IGF-1R (Homo sapiens), given `COc1cc(N2CCC(N3CCCC(F)(F)C3)CC2)ccc1Nc1nc(Nc2cc(F)ccc2C(N)=O)c2cc[nH]c2n1` ?
Marked response: 100 to 500 nM

Exam item: Reported IC50 for NIH-3T3 cells overexpressing human IGF-1R (Homo sapiens), given `COc1cc2c(cc1Nc1nc(Nc3cccc(F)c3C(N)=O)c3cc[nH]c3n1)CN(C(C)C)CC2` ?
Marked response: 100 to 500 nM

----------
# experimental target: NIH-3T3 cells overexpressing human IGF-1R (Homo sapiens, UniProt P08069)
# Sequence (P08069 31-1367): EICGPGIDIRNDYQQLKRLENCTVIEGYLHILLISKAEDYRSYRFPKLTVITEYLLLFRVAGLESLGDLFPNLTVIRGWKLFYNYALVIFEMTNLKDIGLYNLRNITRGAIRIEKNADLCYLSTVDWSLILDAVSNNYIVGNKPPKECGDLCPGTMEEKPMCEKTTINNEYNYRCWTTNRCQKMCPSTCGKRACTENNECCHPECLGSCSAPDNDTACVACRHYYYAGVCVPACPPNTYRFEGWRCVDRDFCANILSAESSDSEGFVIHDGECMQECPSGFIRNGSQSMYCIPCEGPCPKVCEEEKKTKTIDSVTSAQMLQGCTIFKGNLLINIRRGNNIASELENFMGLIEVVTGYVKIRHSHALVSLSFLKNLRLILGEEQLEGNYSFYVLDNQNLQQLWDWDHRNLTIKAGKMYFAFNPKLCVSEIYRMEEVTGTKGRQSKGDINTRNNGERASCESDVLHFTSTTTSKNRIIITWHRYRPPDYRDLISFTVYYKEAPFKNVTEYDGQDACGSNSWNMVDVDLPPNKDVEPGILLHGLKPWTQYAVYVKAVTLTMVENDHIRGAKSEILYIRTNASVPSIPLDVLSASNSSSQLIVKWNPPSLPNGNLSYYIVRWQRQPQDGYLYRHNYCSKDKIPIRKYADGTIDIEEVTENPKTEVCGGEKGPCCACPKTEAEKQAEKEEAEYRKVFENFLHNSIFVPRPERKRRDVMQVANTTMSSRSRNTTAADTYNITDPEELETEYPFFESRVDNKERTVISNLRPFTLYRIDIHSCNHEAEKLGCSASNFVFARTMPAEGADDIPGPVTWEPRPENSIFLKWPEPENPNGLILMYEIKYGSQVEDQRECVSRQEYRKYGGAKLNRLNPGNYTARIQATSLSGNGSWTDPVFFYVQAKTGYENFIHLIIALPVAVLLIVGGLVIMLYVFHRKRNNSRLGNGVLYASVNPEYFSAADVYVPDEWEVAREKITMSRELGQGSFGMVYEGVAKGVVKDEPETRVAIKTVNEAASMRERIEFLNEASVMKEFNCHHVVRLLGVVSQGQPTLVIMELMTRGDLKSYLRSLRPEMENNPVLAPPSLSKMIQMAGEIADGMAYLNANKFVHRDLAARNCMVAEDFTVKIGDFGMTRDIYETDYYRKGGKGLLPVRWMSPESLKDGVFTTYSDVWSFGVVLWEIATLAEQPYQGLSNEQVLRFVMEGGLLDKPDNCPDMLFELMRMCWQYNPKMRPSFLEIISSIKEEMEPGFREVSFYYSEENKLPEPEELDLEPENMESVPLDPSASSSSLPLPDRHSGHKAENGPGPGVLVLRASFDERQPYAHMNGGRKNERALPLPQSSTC
# measurement protocol: IGF-1R cellular autophosphorylation (DELFIA)
pIC50: −log10 of the molar value.
// reported pIC50 per item

>>> result("CCNC(=O)c1c(F)cc(F)cc1Nc1nc(Nc2cc3c(cc2OC)CCCN3C(=O)CN(C)C)nc2[nH]ccc12 [Example 180]")
"> 7.00"

Exam item: GET /values?readout=pIC50&item= COc1cc(N2CCN(C(C)C)CC2)ccc1Nc1nc(Nc2cc(Cl)cc(F)c2C(N)=O)c2cc[nH]c2n1 [Example 93]
Marked response: 6.30 to 7.00

Exam item: GET /values?readout=pIC50&item= COc1cc(N2CCC(N3CCN(CCS(C)(=O)=O)CC3)CC2)ccc1Nc1nc(Nc2cccc(F)c2C(N)=O)c2cc[nH]c2n1 [Example 115]
Marked response: 6.30 to 7.00

Exam item: GET /values?readout=pIC50&item= COc1cc2c(cc1Nc1nc(Nc3cccc(F)c3C(N)=O)c3cc[nH]c3n1)CN(C(=O)CCN(C)C)CC2 [Example 230]
Marked response: < 6.30

Exam item: GET /values?readout=pIC50&item= COc1cc2c(cc1Nc1nc(Nc3cc(F)cc(F)c3C(N)=O)c3cc[nH]c3n1)NCCC2 [Example 220]
Marked response: 6.30 to 7.00

----------
# experimental target: human IGF1R (hIGF1R) (Homo sapiens)
# Construct: containing amino acid residues 957-1367 of human IGF1R; made in house; host or cells: Sf9 cells (baculovirus)
# Sequence (P08069 957-1367): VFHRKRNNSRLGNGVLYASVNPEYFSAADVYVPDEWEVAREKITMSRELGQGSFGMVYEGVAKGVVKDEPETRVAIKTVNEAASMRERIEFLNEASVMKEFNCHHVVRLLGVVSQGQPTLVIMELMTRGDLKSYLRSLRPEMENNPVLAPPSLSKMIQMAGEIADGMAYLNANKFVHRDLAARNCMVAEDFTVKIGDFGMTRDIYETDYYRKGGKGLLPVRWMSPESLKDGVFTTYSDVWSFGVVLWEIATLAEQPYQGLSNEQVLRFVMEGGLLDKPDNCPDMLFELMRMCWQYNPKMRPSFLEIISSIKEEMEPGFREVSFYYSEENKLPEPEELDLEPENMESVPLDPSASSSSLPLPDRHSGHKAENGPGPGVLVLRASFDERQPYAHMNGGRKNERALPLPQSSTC
# measurement protocol: TR-FRET kinase assay of purified hIGF1R
# Assay type: biochemical
# assay conditions: activated hIGF1R 0.5 nM, 10 μM ATP, values given as pIC50 category, read-out: IGF-1R pIC50 (converted)
# Experimental: Time Resolved Fluorescence Resonance Energy Transfer (TR-FRET) assays were carried out on the exemplified compounds as follows: Purity is determined by HPLC. The calculated molecular mass of the peptide is 2216 dalton. […] True peptide concentration is determined by amino acid analysis. […] Assays are performed in 384-well (Greiner, Catalog No. 784076) microtiter plates. […] Compounds, titrated in DMSO, are evaluated at eleven concentrations ranging from 50 μM to 0.2 nM. […]
experimental endpoint: IC50

>>> result("COc1cc(N2CCN(C(C)C)CC2)ccc1Nc1nc(Nc2cc(F)c(F)cc2C(N)=O)c2cc[nH]c2n1")
"0.251 to 1 nM"
>>> result("COc1cc2c(cc1Nc1nc(Nc3cccc(F)c3C(N)=O)c3cc[nH]c3n1)CN(C(C)C)CC2")
"1.26 to 3.98 nM"
>>> result("COc1cc(N2CCC(N3CCN(S(C)(=O)=O)CC3)CC2)ccc1Nc1nc(Nc2cccc(F)c2C(N)=O)c2cc[nH]c2n1")
"1.26 to 3.98 nM"
>>> result("COc1cc2c(cc1Nc1nc(Nc3cccc(F)c3C(N)=O)c3cc[nH]c3n1)N(C(=O)CCN1CCOCC1)CC2")
"5.01 to 200 nM"
>>> result("CNC(=O)c1c(F)cccc1Nc1nc(Nc2cc3c(cc2OC)C[C@@H](C)N3C(=O)CN(C)C)nc2[nH]ccc12")
"5.01 to 200 nM"

Exam item: GET /values?readout=IC50&item= `COc1cc(N2CCN(CC3CC3)CC2)ccc1Nc1nc(Nc2cc(F)ccc2C(N)=O)c2cc[nH]c2n1`
Marked response: 1.26 to 3.98 nM

Exam item: GET /values?readout=IC50&item= `COc1cc(N2CCN(C(C)C)CC2)ccc1Nc1nc(Nc2ccc(Br)cc2C(N)=O)c2cc[nH]c2n1`
Marked response: 1.26 to 3.98 nM

Exam item: GET /values?readout=IC50&item= `COc1cc(N2CCN(C(C)C)CC2)ccc1Nc1nc(Nc2ccc(F)cc2C(=O)NCCO)c2cc[nH]c2n1`
Marked response: 5.01 to 200 nM

Exam item: GET /values?readout=IC50&item= `CNC(=O)c1c(F)cccc1Nc1nc(Nc2cc3c(cc2OC)CCCN3C(C)=O)nc2[nH]ccc12`
Marked response: 5.01 to 200 nM

Exam item: GET /values?readout=IC50&item= `CNC(=O)c1c(F)cccc1Nc1nc(Nc2cc3c(cc2OC)C(C)(C)CC(=O)N3)nc2[nH]ccc12`
Marked response: 1.26 to 3.98 nM

Exam item: GET /values?readout=IC50&item= `COc1cc2c(cc1Nc1nc(Nc3cccc(F)c3C(N)=O)c3cc[nH]c3n1)N(C(C)=O)CCC2`
Marked response: 5.01 to 200 nM

Exam item: GET /values?readout=IC50&item= `COc1cc(N2CCN(CCS(C)(=O)=O)CC2)c(C)cc1Nc1nc(Nc2cccc(F)c2C(N)=O)c2cc[nH]c2n1`
Marked response: 1.26 to 3.98 nM

----------
# experimental target: ALK (Homo sapiens, UniProt Q9UM73)
# Sequence (Q9UM73 19-1620): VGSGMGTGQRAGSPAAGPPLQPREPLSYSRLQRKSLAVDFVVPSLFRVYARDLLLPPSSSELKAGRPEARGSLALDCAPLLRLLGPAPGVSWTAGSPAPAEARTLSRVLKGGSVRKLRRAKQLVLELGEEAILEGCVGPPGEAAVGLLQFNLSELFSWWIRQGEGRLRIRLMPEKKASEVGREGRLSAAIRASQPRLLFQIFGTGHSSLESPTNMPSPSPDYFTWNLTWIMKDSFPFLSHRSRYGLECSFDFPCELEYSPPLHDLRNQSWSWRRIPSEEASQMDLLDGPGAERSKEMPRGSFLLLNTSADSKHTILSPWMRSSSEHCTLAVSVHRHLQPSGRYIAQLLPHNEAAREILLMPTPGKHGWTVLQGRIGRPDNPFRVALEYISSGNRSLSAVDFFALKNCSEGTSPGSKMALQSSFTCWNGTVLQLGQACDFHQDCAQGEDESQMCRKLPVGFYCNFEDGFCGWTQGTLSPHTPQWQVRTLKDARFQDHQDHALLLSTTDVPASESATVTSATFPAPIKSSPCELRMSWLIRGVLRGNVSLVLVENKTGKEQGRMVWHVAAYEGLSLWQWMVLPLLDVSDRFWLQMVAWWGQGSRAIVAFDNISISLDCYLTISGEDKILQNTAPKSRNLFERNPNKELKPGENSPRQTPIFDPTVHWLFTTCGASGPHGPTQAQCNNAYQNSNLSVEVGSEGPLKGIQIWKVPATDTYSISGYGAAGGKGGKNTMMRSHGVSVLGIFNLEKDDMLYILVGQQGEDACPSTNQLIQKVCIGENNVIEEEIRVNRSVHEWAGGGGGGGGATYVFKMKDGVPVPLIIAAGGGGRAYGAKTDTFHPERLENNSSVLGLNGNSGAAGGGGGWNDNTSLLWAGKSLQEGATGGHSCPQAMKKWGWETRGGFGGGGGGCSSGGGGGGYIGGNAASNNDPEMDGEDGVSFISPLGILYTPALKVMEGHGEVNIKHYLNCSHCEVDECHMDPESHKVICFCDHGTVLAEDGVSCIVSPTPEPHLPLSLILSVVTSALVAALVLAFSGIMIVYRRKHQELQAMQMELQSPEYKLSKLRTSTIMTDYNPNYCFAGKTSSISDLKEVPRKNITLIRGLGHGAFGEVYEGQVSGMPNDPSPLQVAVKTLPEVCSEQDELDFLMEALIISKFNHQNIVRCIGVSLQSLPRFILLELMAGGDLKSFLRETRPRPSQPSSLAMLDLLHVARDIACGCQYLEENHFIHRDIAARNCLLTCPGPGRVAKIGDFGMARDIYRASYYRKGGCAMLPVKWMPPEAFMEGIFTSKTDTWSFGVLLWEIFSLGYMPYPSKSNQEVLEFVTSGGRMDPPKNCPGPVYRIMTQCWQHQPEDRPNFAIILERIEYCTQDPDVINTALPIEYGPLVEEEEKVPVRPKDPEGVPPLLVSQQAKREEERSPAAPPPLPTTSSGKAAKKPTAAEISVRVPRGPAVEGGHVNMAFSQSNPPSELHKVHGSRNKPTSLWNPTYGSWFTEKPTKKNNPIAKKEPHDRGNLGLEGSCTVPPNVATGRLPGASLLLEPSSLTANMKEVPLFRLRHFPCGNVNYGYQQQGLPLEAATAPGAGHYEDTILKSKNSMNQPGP
// reported IC50 per item

Observe how each entry below is paired with its result.
>>> result("CCN(CC)CC(=O)N1CCc2cc(OC)c(Nc3nc(Nc4cccc(F)c4C(N)=O)c4cc[nH]c4n3)cc21 [Example 136]")
"1.26 to 3.98 nM"
>>> result("CNC(=O)c1c(F)cccc1Nc1nc(Nc2cc3c(cc2OC)CCN3C(C)=O)nc2[nH]ccc12 [Example 135]")
"1.26 to 3.98 nM"
>>> result("CNC(=O)c1c(F)cccc1Nc1nc(Nc2cc3c(cc2OC)C(C)(C)CC(=O)N3)nc2[nH]ccc12 [Example 228]")
"1.26 to 3.98 nM"
>>> result("CNC(=O)c1c(F)cc(Cl)cc1Nc1nc(Nc2cc3c(cc2OC)CCN3C(=O)CN(C)C)nc2[nH]ccc12 [Example 120]")
"0.251 to 1 nM"
>>> result("CNC(=O)c1cc(F)ccc1Nc1nc(Nc2ccc(N3CCN(C(C)C)CC3)cc2OC)nc2[nH]ccc12 [Example 65]")
"1.26 to 3.98 nM"
>>> result("COc1cc(N2CCCN(C(C)C)CC2)ccc1Nc1nc(Nc2cccc(F)c2C(N)=O)c2cc[nH]c2n1 [Example 208]")
"0.251 to 1 nM"

Exam item: GET /values?readout=IC50&item= COc1cc2c(cc1Nc1nc(Nc3cccc(F)c3C(N)=O)c3cc[nH]c3n1)N(C(=O)CN(C)C)[C@@H](C)C2 [Example 249]
Marked response: 1.26 to 3.98 nM

Exam item: GET /values?readout=IC50&item= COc1cc(N2CCC(C3CCN(CCS(C)(=O)=O)CC3)CC2)ccc1Nc1nc(Nc2cccc(F)c2C(N)=O)c2cc[nH]c2n1 [Example 112]
Marked response: 0.251 to 1 nM

Exam item: GET /values?readout=IC50&item= COc1cc2c(cc1Nc1nc(Nc3cc(F)cc(F)c3C(N)=O)c3cc[nH]c3n1)NCCC2 [Example 220]
Marked response: 5.01 to 200 nM

Exam item: GET /values?readout=IC50&item= COc1cc(N2CCN(C(C)C)CC2)ccc1Nc1nc(Nc2ccc(F)cc2C(=O)NCCO)c2cc[nH]c2n1 [Example 66]
Marked response: 1.26 to 3.98 nM
